TESTED TARGET: PI3Kβ (Homo sapiens, UniProt P42338)
Construct: purchased Reaction Biology Corporation
Sequence (P42338 whole entry): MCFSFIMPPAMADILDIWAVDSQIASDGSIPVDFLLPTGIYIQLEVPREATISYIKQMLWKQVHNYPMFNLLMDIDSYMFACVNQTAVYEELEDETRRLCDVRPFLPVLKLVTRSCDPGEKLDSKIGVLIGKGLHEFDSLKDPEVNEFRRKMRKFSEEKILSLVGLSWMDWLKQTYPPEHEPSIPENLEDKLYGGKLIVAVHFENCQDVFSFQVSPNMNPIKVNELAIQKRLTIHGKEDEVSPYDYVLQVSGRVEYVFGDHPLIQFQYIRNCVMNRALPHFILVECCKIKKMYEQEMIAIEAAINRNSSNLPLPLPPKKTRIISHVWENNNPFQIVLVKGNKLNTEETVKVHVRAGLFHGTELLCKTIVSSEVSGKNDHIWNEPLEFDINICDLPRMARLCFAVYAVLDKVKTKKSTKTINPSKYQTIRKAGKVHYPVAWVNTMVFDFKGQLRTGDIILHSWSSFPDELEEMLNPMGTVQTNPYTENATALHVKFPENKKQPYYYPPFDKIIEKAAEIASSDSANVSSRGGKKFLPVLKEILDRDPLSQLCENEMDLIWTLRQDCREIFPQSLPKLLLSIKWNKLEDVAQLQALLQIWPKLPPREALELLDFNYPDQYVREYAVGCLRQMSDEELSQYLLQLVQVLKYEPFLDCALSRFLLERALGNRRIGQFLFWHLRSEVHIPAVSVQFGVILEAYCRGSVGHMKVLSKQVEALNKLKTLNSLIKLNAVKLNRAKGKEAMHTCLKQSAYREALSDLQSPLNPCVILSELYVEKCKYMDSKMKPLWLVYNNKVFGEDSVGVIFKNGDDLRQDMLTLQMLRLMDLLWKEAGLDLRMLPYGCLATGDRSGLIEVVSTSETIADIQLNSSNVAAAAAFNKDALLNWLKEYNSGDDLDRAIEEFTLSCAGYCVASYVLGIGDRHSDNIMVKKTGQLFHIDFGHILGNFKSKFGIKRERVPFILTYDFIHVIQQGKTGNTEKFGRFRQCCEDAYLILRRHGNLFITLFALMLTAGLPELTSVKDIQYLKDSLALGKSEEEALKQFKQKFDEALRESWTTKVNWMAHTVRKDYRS
Sequence (P27986 whole entry partner): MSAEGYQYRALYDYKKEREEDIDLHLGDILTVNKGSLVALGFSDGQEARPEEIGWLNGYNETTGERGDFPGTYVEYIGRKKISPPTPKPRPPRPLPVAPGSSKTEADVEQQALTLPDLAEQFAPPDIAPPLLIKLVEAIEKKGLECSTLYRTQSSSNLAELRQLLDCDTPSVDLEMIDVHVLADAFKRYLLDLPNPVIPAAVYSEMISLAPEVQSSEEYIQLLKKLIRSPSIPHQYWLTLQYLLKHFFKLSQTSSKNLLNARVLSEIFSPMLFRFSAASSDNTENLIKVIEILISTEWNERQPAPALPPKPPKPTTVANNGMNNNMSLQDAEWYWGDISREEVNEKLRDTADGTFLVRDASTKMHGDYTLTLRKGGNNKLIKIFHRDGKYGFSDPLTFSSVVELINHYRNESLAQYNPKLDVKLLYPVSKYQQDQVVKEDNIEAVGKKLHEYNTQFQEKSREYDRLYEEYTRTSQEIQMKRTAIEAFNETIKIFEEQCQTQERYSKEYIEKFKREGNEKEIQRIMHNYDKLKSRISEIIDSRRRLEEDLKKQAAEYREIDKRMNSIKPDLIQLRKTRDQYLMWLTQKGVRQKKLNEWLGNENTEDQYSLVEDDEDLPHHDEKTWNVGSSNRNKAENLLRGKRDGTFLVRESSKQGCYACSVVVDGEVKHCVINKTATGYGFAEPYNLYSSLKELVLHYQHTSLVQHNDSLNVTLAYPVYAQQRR
ASSAY: PI3Kβ isoform profiling (PI3Kδ protocol)
Assay type: biochemical
TEST SETTINGS: 0.3 μM compound
Classes are defined on PI3Kβ @ 0.3 μM (% Inh) with ranges low-valued (below 30 % Inh), mid-valued (30 % Inh to below 50 % Inh), high-valued (50 % Inh or more)

// query Band for the recorded PI3Kβ @ 0.3 μM (% Inh) of C=CC(=O)N1CC(n2nc(-c3cc(O)cc(F)c3)c3c(N)ncnc32)Cc2cc(C)ccc21 (single isomer, unassigned) [31b] ?
// result mid-valued

// query Record Nc1ncnc2c1c(-c1ccc3cc[nH]c3c1)nn2C1CCc2ccccc2C1 (racemic) — which class?
// result mid-valued

// query Entry Nc1ncnc2c1c(-c1cc(O)c(F)c(F)c1)cn2C1Cc2ccccc2C1 belongs to which category?
// result mid-valued

// query Which of the defined bands does the recorded PI3Kβ @ 0.3 μM (% Inh) of Nc1ncnc2c1c(-c1cc(O)c(F)c(C(F)(F)F)c1)nn2C1Cc2ccccc2C1 sit within?
// result high-valued

// query Which PI3Kβ @ 0.3 μM (% Inh) band matches Nc1ncnc2c1c(-c1ccc(Cl)c(O)c1)cn2C1Cc2ccccc2C1 ?
// result mid-valued

// query Consider Nc1ncnc2c1c(-c1cc(O)c(F)c(F)c1)nn2C1Cc2ccccc2C1 . To which PI3Kβ @ 0.3 μM (% Inh) class does it belong?
// result high-valued

// query Lab note: which band did Nc1ncnc2c1c(-c1ccc(F)c(O)c1)nn2C1CCc2ccccc2C1 (racemic) land in?
// result mid-valued

// query Exam item: assign Nc1ncnc2c1c(-c1cc(O)cc(F)c1)nn2C1Cc2ccc(F)cc2C1 (stereo not drawn) to the correct category.
// result high-valued

// query Input Nc1ncnc2c1c(-c1ccc(Cl)c(O)c1)nn2C1Cc2ccccc2C1 ; output its category
// result low-valued

// query Place this compound in its band: C=CC(=O)N1CC(n2nc(-c3cc(O)cc(F)c3)c3c(N)ncnc32)Cc2cc(C)ccc21 (stereo not drawn) [compound 31]
// result high-valued

// query Assign a category based on measured PI3Kβ @ 0.3 μM (% Inh) for N#Cc1cc(-c2cn(C3Cc4ccccc4C3)c3ncnc(N)c23)cc(O)c1F and give only the class name.
// result high-valued

// query Pick a category. Item: Nc1ncnc2c1c(-c1ccc(Cl)c(O)c1F)nn2C1Cc2ccccc2C1
// result mid-valued

// query Band for COc1ccc(-c2nn(C3Cc4ccccc4C3)c3ncnc(N)c23)cc1O ?
// result low-valued

// query State the class of the compound shown: Nc1ncnc2c1c(-c1cc(F)c3c(c1)NCCO3)nn2C1Cc2ccccc2C1
// result low-valued

// query Could you place COc1cc(-c2nn(C3Cc4ccccc4C3)c3ncnc(N)c23)ccc1C in its proper category? Many thanks.
// result low-valued
